Reported pIC50 values follow for various molecules
Target: JAK2 (recombinant purified GST-tagged catalytic domain) (Homo sapiens (Human), UniProt O60674)
Sequence (O60674 849-1124): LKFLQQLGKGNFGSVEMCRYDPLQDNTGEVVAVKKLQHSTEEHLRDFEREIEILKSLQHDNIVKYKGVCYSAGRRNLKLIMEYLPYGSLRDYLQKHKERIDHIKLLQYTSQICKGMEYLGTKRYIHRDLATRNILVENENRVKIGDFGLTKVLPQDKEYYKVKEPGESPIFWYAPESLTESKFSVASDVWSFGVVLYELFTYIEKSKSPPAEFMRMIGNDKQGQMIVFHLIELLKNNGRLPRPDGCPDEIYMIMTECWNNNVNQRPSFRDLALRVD
Assay: biochemical
When answering, recall that pIC50 equals minus log10 of the concentration in mol/L, and write that number alone.

Answered cases to consult:
| molecule | pIC50 |
| --- | --- |
| N#C[C@H]1C[C@@](O)(C2CC2)CC[C@@H]1n1cc(C(N)=O)c(Nc2ccc(Cl)c(F)c2)n1 (single isomer, unassigned) [Example 32-1] | 7.23 |
| N#Cc1ccc(Nc2nn([C@H]3CCCC[C@@H]3C#N)cc2C(N)=O)cc1 (racemic) [Example 17-5] | 8.05 |
| CC(C)(N[C@H]1CCC(n2cc(C(N)=O)c(Nc3ccccc3)n2)[C@@H](C#N)C1)C1CC1 (single isomer, unassigned) [Example 28-214] | 7.42 |
| C[C@H](N[C@H]1CC[C@H](n2cc(C(N)=O)c(Nc3ccc(S(=O)(=O)C(F)(F)F)cc3)n2)[C@@H](C#N)C1)C1CC1 (single isomer, unassigned) [Example 28-184] | 7.64 |
| CS(=O)(=O)N[C@@H]1CC[C@H](n2cc(C(N)=O)c(Nc3ccc(Cl)cc3)n2)[C@@H](C#N)C1 (racemic) [Example 38-3] | 8.10 |

Let's switch to this molecule now.
Any idea what pIC50 was measured for N#Cc1cncc(Nc2nn([C@H]3CCCC[C@@H]3C#N)cc2C(N)=O)c1 (single isomer, unassigned) [Example 17-74] ?
7.31

###

Target: JAK2 (recombinant purified GST-tagged catalytic domain) (Homo sapiens (Human));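 also: biochemical JAK kinase assay with HTRF detection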
Experiment: biochemical
List of pIC50 values.
Field pIC50 (float): negative decimal logarithm of the concentration in molar.

Worked cases, answers included:
| compound | result |
| --- | --- |
| N#C[C@H]1C[C@@H](O)CC[C@@H]1n1cc(C(N)=O)c(Nc2ccc(C(F)F)nc2)n1 (single isomer, unassigned) | 7.48 |
| CC1(C)CN([C@@H]2CC[C@H](n3cc(C(N)=O)c(Nc4ccc([C@@H](O)C(F)(F)F)cc4)n3)[C@@H](C#N)C2)C1 (single isomer, unassigned) | 7.62 |

// moving on: another record for pIC50
# query: pIC50 of entry N#C[C@H]1C[C@@H](NC2COC2)CC[C@@H]1n1cc(C(N)=O)c(Nc2ccc(CC(F)(F)F)cc2)n1 (single isomer, unassigned)
8.52

###

Molecular target: JAK1 (recombinant purified GST-tagged catalytic domain) (Homo sapiens (Human), UniProt P23458);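 also: biochemical assay with HTRF read-out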
Sequence (P23458 875-1153): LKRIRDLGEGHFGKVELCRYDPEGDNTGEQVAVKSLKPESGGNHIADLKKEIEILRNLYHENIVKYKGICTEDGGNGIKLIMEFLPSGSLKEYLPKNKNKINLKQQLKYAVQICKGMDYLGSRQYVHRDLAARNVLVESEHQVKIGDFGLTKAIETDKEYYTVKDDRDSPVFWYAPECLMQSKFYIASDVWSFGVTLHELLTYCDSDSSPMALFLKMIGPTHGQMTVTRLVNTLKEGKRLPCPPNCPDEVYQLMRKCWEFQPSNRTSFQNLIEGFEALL
Experiment: biochemical
attribute.measured: pIC50
As a rule, pIC50 stands for the negative log10 of the concentration, concentration in M.

| compound | pIC50 |
| --- | --- |
| N#C[C@H]1CCCC[C@@H]1n1cc(C(N)=O)c(Nc2cnc3ccc(Cl)cc3c2)n1 (single isomer, unassigned) | 8.22 |
| CC(C)(C(=O)NCC(F)(F)F)c1ccc(Nc2nn([C@H]3CCCC[C@@H]3C#N)cc2C(N)=O)cc1 (single isomer, unassigned) | 9.70 |
| N#C[C@H]1C[C@@H](NC2(CO)CC2)CCC1n1cc(C(N)=O)c(Nc2ccc(Cl)cc2)n1 (single isomer, unassigned) | 8.70 |

Recorded pIC50 of CC(C)N[C@H]1CC[C@H](n2cc(C(N)=O)c(Nc3ccc(S(=O)(=O)C(F)(F)F)cc3)n2)[C@@H](C#N)C1 (single isomer, unassigned) , please.
9.82

Would you mind telling me what pIC50 value was observed for CC(C)(O)[C@H]1CC[C@H](n2cc(C(N)=O)c(Nc3ccc(Cl)cc3)n2)[C@@H](C#N)C1 (single isomer, unassigned) [Example 36-2] ?
8.52

# input compound: N#C[C@H]1CCCC[C@@H]1n1cc(C(N)=O)c(Nc2ccc(S(=O)(=O)NCc3ccc(C(F)(F)F)cc3)cc2)n1 (single isomer, unassigned) ; wanted: its pIC50
8.70

Source: patent US8962608B2
